# TESTED ON: human orexin-1 receptor (Homo sapiens, UniProt O43613)
# Sequence (O43613 whole entry): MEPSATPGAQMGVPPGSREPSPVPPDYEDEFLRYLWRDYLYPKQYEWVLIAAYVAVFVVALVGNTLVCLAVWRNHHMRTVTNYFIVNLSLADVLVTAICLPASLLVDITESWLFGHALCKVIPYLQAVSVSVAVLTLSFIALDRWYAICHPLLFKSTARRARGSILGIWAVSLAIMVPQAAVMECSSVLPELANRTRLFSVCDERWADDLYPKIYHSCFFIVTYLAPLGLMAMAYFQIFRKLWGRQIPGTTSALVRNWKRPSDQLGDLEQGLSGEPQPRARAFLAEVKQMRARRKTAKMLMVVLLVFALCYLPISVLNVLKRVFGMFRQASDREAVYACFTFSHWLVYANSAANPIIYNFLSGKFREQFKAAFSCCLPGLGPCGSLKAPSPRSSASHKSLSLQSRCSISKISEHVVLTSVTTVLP
# ASSAY SUMMARY: Intracellular calcium measurements (FLIPR), orexin receptor antagonistic activity, OX1
# STUDY CONDITIONS: CHO cells expressing the human orexin-1 receptor; 10 nM orexin-A as agonist
pIC50: −log10 of the molar value.
MEASURED METRIC: pIC50

{"MOLECULE": "Cc1cccc(-c2sc(C)nc2C(=O)N2CSC[C@H]2CNC(=O)c2ccc(C(F)(F)F)c3occc23)c1 [Example 141]", "TESTED ON": "human orexin-1 receptor (Homo sapiens, UniProt O43613)", "NUMERIC VALUE": 8.00}
{"MOLECULE": "COc1cccc(-c2sc(C)nc2C(=O)N2CSC[C@H]2CNC(=O)c2cccc3occc23)c1 [Example 11]", "TESTED ON": "human orexin-1 receptor (Homo sapiens, UniProt O43613)", "NUMERIC VALUE": 9.00}
{"MOLECULE": "Cc1cccc(-c2sc(C)nc2C(=O)N2CSC[C@H]2CNC(=O)c2cccc3ncoc23)c1 [Example 119]", "TESTED ON": "human orexin-1 receptor (Homo sapiens, UniProt O43613)", "NUMERIC VALUE": 8.70}
{"MOLECULE": "Cc1cccc(-c2sc(C)nc2C(=O)N2CSC[C@H]2CNC(=O)c2ccc(F)c3occc23)c1 [Example 127]", "TESTED ON": "human orexin-1 receptor (Homo sapiens, UniProt O43613)", "NUMERIC VALUE": 8.70}
{"MOLECULE": "Cc1nc(C(=O)N2CSC[C@H]2CNC(=O)c2c(C)cn3ccsc23)c(-c2ccc(F)cc2)s1 [Example 132]", "TESTED ON": "human orexin-1 receptor (Homo sapiens, UniProt O43613)", "NUMERIC VALUE": 8.30}
{"MOLECULE": "Cc1nc(C(=O)N2CSC[C@H]2CNC(=O)c2cc3ccccc3s2)c(-c2ccc(F)cc2)s1 [Example 91]", "TESTED ON": "human orexin-1 receptor (Homo sapiens, UniProt O43613)", "NUMERIC VALUE": 5.23}
{"MOLECULE": "Cn1nc(C(=O)NC[C@@H]2CSCN2C(=O)c2ccccc2-c2ccccc2)c2ccccc21 [Example 83]", "TESTED ON": "human orexin-1 receptor (Homo sapiens, UniProt O43613)", "NUMERIC VALUE": 8.22}
{"MOLECULE": "O=C(NC[C@@H]1CSCN1C(=O)c1ccccc1-c1ccccc1)c1cccc2occc12 [Example 79]", "TESTED ON": "human orexin-1 receptor (Homo sapiens, UniProt O43613)", "NUMERIC VALUE": 7.64}

[P] Cc1nc(C(=O)N2CSC[C@H]2CNC(=O)c2c(C)nc3sccn23)c(-c2cccc(C(F)(F)F)c2)o1 [Example 38]
[Q] Cc1ccc(-c2nc(C)sc2C(=O)N2CSC[C@H]2CNC(=O)c2c(C)nc3sccn23)cc1 [Example 41]
Could you point out whether the larger pIC50 belongs to P or to Q ? # respond with the chosen item's label
Q

[a] Cc1nc(C(=O)N2CSC[C@H]2CNC(=O)c2c(C)nc3sccn23)c(-c2cccc(F)c2)s1 [Example 31]
[b] Cc1nc(C(=O)N2CSC[C@H]2CNC(=O)c2c(C)nc3ccccn23)c(-c2ccc(F)cc2)s1 [Example 110]
Could you point out whether the larger pIC50 belongs to a or to b ? # respond with the chosen item's label
a
(a: 8.22, b: 7.00)

Sourced from patent US8236964B2
